Molecular target: human PPARγ (182–505aa) ligand binding domain (Homo sapiens)
Construct: γ(182–505aa); expressed in transfected cells; host or cells: COS-7
Sequence (P37231 182-505): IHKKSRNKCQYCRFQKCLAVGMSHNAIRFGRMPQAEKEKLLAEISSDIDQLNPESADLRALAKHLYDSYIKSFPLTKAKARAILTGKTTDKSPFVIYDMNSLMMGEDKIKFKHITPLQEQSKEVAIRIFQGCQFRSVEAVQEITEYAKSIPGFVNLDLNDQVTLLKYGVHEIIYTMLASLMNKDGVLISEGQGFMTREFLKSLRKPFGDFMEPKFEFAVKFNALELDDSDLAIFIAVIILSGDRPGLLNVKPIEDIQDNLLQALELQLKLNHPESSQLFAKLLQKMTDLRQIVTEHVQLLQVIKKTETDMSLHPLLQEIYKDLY
Assay: PPAR transfection (Gal4-LBD luciferase reporter) assay, hPPARγ
Format: cell-based
Conditions: transfected COS-7 cells, 16 hours, luciferase activity; read-out: hPPAR; EC50 γ (agonist activity)
Kindly supply the reported pEC50 values for the records listed here.
# pEC50 is unitless: minus log10 of the molar concentration; print number only

Entry under test: CCC(Oc1cccc(CCN(CCOc2ccc(OC)cc2)c2nc3ccccc3o2)c1)C(=O)O (centres unmarked) [Example 45] . Its pEC50 was 5.20

Entry under test: CCC(Oc1cccc(CN(CCCOc2ccc(C)cc2)c2nc3ccccc3o2)c1)C(=O)O (centres unmarked) [Example 146] . Its pEC50 was 6.70

Entry under test: CCC(Oc1cccc(CN(CCOc2ccccc2)c2nc3ccccc3o2)c1)C(=O)O (centres unmarked) [Example 24] . Its pEC50 was 5.85

Entry under test: CC[C@@H](Oc1cccc(CN(CCCOc2ccc(OC)cc2)c2nc3ccccc3o2)c1)C(=O)O [Example 85] . Its pEC50 was 5.96

Entry under test: CCC(Oc1cccc(CCN(CCOc2ccc(OC)cc2)c2nc3cc(OC)ccc3o2)c1)C(=O)O (centres unmarked) [Example 48] . Its pEC50 was 5.28

Entry under test: CC(Oc1cccc(CN(CCCOc2ccccc2)c2nc3ccccc3o2)c1)C(=O)O (centres unmarked) [Example 9] . Its pEC50 was 5.92

Entry under test: CC(C)(Oc1cccc(CN(CCOc2ccc(Cl)cc2)c2nc3ccccc3o2)c1)C(=O)O [Example 6] . Its pEC50 was 5.46

Entry under test: CCC(Oc1cccc(CCN(CCOc2ccccc2)c2nc3ccccc3o2)c1)C(=O)O (centres unmarked) [Example 41] . Its pEC50 was 5.70

Entry under test: CCC(Oc1cccc(CN(CCCOc2ccc(F)cc2)c2nc3ccc(F)cc3o2)c1)C(=O)O (centres unmarked) [Example 140] . Its pEC50 was 5.89

Entry under test: CCC(Oc1cccc(CN(CCCOc2ccccc2)c2nc3cc4c(cc3o2)OCO4)c1)C(=O)O (centres unmarked) [Example 158] . Its pEC50 was 5.80

Entry under test: COc1ccc(OCCCN(Cc2cccc(OC(C)C(=O)O)c2)c2nc3ccccc3s2)cc1 (centres unmarked) [Example 96] . Its pEC50 was 5.96

Entry under test: CC(Oc1cccc(CCN(CCOc2ccc(F)cc2)c2nc3cc(F)ccc3o2)c1)C(=O)O (centres unmarked) [Example 35] . Its pEC50 was 5.92

Entry under test: CC(Oc1cccc(CN(CCOc2ccc(F)cc2)c2nc3ccccc3o2)c1)C(=O)O (centres unmarked) [Example 186] . Its pEC50 was 5.26

The reported numbers originate from patent US7183295B2.
